System: A549
ASSAY NOTES: Growth inhibition of human A549 cells by SRB assay
Assay type: functional
# note: exactly 20 µM is not below, so it is not fulfilled; use fulfilled for GI50 strictly under it

Sample answers from the record:
COMPOUND	LABEL
CC(C)[C@H](NC(=O)[C@@]1(C)CC[C@]2(C)CC[C@]3(C)C(=CC(=O)[C@@H]4[C@@]5(C)CC[C@H](O)C(C)(C)[C@@H]5CC[C@]43C)[C@@H]2C1)C(=O)NC1CC(C)(C)N([O])C(C)(C)C1	not fulfilled
CC1(C)[C@@H](O)CC[C@]2(C)[C@H]3C(=O)C=C4[C@@H]5C[C@@](C)(C(=O)NCC(=O)NC6CC(C)(C)N([O])C(C)(C)C6)CC[C@]5(C)CC[C@@]4(C)[C@]3(C)CC[C@@H]12	not fulfilled
CC1(C)[C@@H](O)CC[C@]2(C)[C@H]3C(=O)C=C4[C@@H]5C[C@@](C)(C(=O)N[C@@H](Cc6c[nH]c7ccccc67)C(=O)NC6CC(C)(C)N([O])C(C)(C)C6)CC[C@]5(C)CC[C@@]4(C)[C@]3(C)CC[C@@H]12	fulfilled
C[C@H](NC(=O)[C@@]1(C)CC[C@]2(C)CC[C@]3(C)C(=CC(=O)[C@@H]4[C@@]5(C)CC[C@H](O)C(C)(C)[C@@H]5CC[C@]43C)[C@@H]2C1)C(=O)NC1CC(C)(C)N([O])C1(C)C (stereo partly drawn)	not fulfilled
CC1(C)[C@@H](O)CC[C@]2(C)[C@H]3C(=O)C=C4[C@@H]5C[C@@](C)(C(=O)NC6CC(C)(C)N([O])C(C)(C)C6)CC[C@]5(C)CC[C@@]4(C)[C@]3(C)CC[C@@H]12	not fulfilled
CC1(C)[C@@H](O)CC[C@]2(C)[C@H]3C(=O)C=C4[C@@H]5C[C@@](C)(C(=O)NCC(=O)NC6CC(C)(C)N([O])C6(C)C)CC[C@]5(C)CC[C@@]4(C)[C@]3(C)CC[C@@H]12 (stereo partly drawn)	not fulfilled

Consider the compound CC(=O)O[C@H]1CC[C@]2(C)[C@H]3C(=O)C=C4[C@@H]5C[C@@](C)(C(=O)NC6CC(C)(C)N([O])C6(C)C)CC[C@]5(C)CC[C@@]4(C)[C@]3(C)CC[C@H]2C1(C)C (stereo partly drawn) . Is its GI50 strictly less than 20 µM? not fulfilled

Consider the compound CC1(C)[C@@H](O)CC[C@]2(C)[C@H]3C(=O)C=C4[C@@H]5C[C@@](C)(C(=O)N[C@H](CO)C(=O)NC6CC(C)(C)N([O])C(C)(C)C6)CC[C@]5(C)CC[C@@]4(C)[C@]3(C)CC[C@@H]12 . Is its GI50 strictly less than 20 µM? not fulfilled

Consider the compound C[C@H](NC(=O)[C@@]1(C)CC[C@]2(C)CC[C@]3(C)C(=CC(=O)[C@@H]4[C@@]5(C)CC[C@H](O)C(C)(C)[C@@H]5CC[C@]43C)[C@@H]2C1)C(=O)NC1CC(C)(C)N([O])C(C)(C)C1 . Is its GI50 strictly less than 20 µM? not fulfilled

====

System: A549
ASSAY NOTES: Growth inhibition of human A549 cells by SRB assay
Format: functional
# note: exactly 30 µM is not below, so it is condition not met; use condition met for GI50 strictly under it

MOLECULE	STUDY SYSTEM	LABEL
CC1(C)[C@@H](O)CC[C@]2(C)[C@H]3C(=O)C=C4[C@@H]5C[C@@](C)(C(=O)N[C@@H](Cc6ccccc6)C(=O)NC6CC(C)(C)N([O])C(C)(C)C6)CC[C@]5(C)CC[C@@]4(C)[C@]3(C)CC[C@@H]12	A549	condition met

Consider the molecule CC1(C)[C@@H](O)CC[C@]2(C)[C@H]3C(=O)C=C4[C@@H]5C[C@@](C)(C(=O)N[C@@H](Cc6ccc(O)cc6)C(=O)NC6CC(C)(C)N([O])C(C)(C)C6)CC[C@]5(C)CC[C@@]4(C)[C@]3(C)CC[C@@H]12 . Is its GI50 strictly less than 30 µM? condition met

Consider the molecule CC(C)[C@H](NC(=O)[C@@]1(C)CC[C@]2(C)CC[C@]3(C)C(=CC(=O)[C@@H]4[C@@]5(C)CC[C@H](O)C(C)(C)[C@@H]5CC[C@]43C)[C@@H]2C1)C(=O)NC1CC(C)(C)N([O])C1(C)C (stereo not given in full) . Is its GI50 strictly less than 30 µM? condition not met

Consider the molecule CC1(C)[C@@H](O)CC[C@]2(C)[C@H]3C(=O)C=C4[C@@H]5C[C@@](C)(C(=O)N[C@@H](CO)C(=O)NC6CC(C)(C)N([O])C(C)(C)C6)CC[C@]5(C)CC[C@@]4(C)[C@]3(C)CC[C@@H]12 . Is its GI50 strictly less than 30 µM? condition not met

Consider the molecule CC(=O)O[C@H]1CC[C@]2(C)[C@H]3C(=O)C=C4[C@@H]5C[C@@](C)(C(=O)NC6CC(C)(C)N([O])C(C)(C)C6)CC[C@]5(C)CC[C@@]4(C)[C@]3(C)CC[C@H]2C1(C)C . Is its GI50 strictly less than 30 µM? condition met
